Tested on: phosphorylation of pRb at the Ser780 site in JeKo-1 mantle cell lymphoma cells
Experiment: CDK4 cellular assay: ELISA of pRb phosphorylation at Ser780 in JeKo-1 cells
Type: cell-based
Conditions: Homo sapiens; JeKo-1 cells, p-pRb % inhibition adjusted with total pRb levels; read-out: Normalized cellular ppRb inhibition IC50
pIC50: −log10 of the molar value.
ENDPOINT LABEL: pIC50

Worked cases, answers included:
{"columns": ["MOLECULE", "pIC50"],
 "data": [
  ["CN(C)C(=O)c1cc2cnc(Nc3ccc(C(=O)N4C[C@@H]5C[C@H]4C[C@H]5O)cn3)nc2n1C1CCCC1", "6.23 to 6.30"],
  ["CSCC[C@@H](N)C(=O)N1C2CCC1CN(C(=O)c1ccc(Nc3ncc4cc(C(=O)N(C)C)n(C5CCCC5)c4n3)nc1)C2", "< 5.00"]
]}

Now let's try a different one.
# input Item CN(C)C(=O)c1cc2cnc(Nc3ccc(N4CC5(CCCNC5)OC4=O)cn3)nc2n1C1CCCC1 (stereo not drawn) has what recorded pIC50?
# output 6.94 to 7.43

---

System: phosphorylation of pRb at the Ser780 site in JeKo-1 mantle cell lymphoma cells
Test: CDK4 cellular assay: ELISA of pRb phosphorylation at Ser780 in JeKo-1 cells
Assay type: cell-based
Settings: JeKo-1 cells, p-pRb Ser780 ELISA, non-normalized; read-out: Cellular ppRb inhibition IC50
Each record here notes measured IC50.

Check out these entries, answers already filled in.
{"columns": ["SMILES ENTRY", "SYSTEM NAME", "IC50"],
 "data": [
  ["CN(C)C(=O)c1cc2cnc(Nc3ccc(N4CCC5(CCNCC5)C4=O)cn3)nc2n1C1CCCC1", "phosphorylation of pRb at the Ser780 site in JeKo-1 mantle cell lymphoma cells", "40 to 67 nM"],
  ["CN(C)C(=O)c1cc2cnc(Nc3ccc(N4C(=O)CN5CCC4CC5)cn3)nc2n1C1CCCC1", "phosphorylation of pRb at the Ser780 site in JeKo-1 mantle cell lymphoma cells", "31 to 39 nM"],
  ["CN(C)C(=O)c1cc2cnc(Nc3ccc(C(=O)N4[C@@H]5CC[C@H]4C[C@H](O)C5)cn3)nc2n1C1CCCC1", "phosphorylation of pRb at the Ser780 site in JeKo-1 mantle cell lymphoma cells", "461 to 745 nM"]
]}

Next, consider the following compound.
# input // lookup IC50 for CN(C)C(=O)c1cc2cnc(Nc3ccc(C(=O)N4CC5CCC(C4)N5)nn3)nc2n1C1CCCC1
# output 75 to 259 nM

---

Measured IC50 by item
Target: CDK1/cyclin B (Homo sapiens (Human), UniProt P06493)
Sequence (P06493 whole entry, species assumed): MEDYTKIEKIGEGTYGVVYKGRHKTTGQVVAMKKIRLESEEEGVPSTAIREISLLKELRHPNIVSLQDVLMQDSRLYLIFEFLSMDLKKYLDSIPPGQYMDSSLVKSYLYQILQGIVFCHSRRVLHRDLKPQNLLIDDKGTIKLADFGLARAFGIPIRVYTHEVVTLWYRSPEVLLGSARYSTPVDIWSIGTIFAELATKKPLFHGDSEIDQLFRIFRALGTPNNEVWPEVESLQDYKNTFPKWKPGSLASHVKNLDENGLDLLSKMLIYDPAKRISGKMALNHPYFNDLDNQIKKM
Sequence (P14635 whole entry partner, species assumed): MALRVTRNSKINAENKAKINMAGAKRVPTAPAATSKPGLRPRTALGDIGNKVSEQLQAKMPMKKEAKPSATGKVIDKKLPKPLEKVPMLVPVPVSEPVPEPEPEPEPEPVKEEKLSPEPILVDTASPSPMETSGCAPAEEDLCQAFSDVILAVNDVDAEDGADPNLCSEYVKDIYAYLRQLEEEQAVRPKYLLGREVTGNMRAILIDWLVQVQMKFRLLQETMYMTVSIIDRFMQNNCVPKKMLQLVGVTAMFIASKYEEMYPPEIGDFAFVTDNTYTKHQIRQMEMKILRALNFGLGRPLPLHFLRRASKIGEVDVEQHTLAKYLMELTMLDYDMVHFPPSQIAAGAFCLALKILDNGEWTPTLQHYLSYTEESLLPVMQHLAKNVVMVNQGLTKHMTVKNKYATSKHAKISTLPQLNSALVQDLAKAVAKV
Assay: CDK1/cyclin B enzymatic activity assay (IMAP-FP)
Format: biochemical
Details: […] CDK1/cyclin B, 100 nM Tamra Histone-H1 peptide, 20 μM ATP, 120 min at room temperature; read-out: Biochemical CDK1 enzyme IC50

# input So what's the measured IC50 for this one? CN(C)C(=O)c1cc2cnc(Nc3ccc(N4C[C@@H]5CNC[C@@H]5C4=O)cn3)nc2n1C1CCCCCC1
# output 2.66 µM

---

Examples of compounds with documented pIC50 follow.
System: phosphorylation of pRb at the Ser780 site in JeKo-1 mantle cell lymphoma cells
Assay: CDK4 cellular assay: ELISA of pRb phosphorylation at Ser780 in JeKo-1 cells
Type: cell-based
Settings: Homo sapiens, JeKo-1, JeKo-1 cells, p-pRb % inhibition adjusted with total pRb levels; read-out: Normalized cellular ppRb inhibition IC50
pIC50: −log10 of the molar value.

{"columns": ["COMPOUND", "VALUE REPORTED"],
 "data": [
  ["CN(C)C(=O)c1cc2cnc(Nc3ccc(C(=O)N4C[C@@H]5C[C@H]4CN5)cn3)nc2n1C1CCCC1", "6.94 to 7.19"]
]}

Now take the following compound into account.
# input Query pIC50 on phosphorylation of pRb at the Ser780 site in JeKo-1 mantle cell lymphoma cells for CN(C)C(=O)c1cc2cnc(Nc3ccc(N4C[C@H]5CNC[C@H]5C4=O)cn3)nc2n1C1CCCC1
# output 7.85 to 7.89

---

Test system: phosphorylation of pRb at the Ser780 site in JeKo-1 mantle cell lymphoma cells
Test: CDK4 cellular assay: ELISA of pRb phosphorylation at Ser780 in JeKo-1 cells
Assay type: cell-based
Conditions: Homo sapiens; JeKo-1 cells, p-pRb Ser780 ELISA, non-normalized; read-out: Cellular ppRb inhibition IC50
ENDPOINT LABEL: IC50

The cases that follow already have their IC50 on record.
{"columns": ["MOLECULE", "IC50"],
 "data": [
  ["CC(C)N1C2CCC1CN(C(=O)c1ccc(Nc3ncc4cc(C(=O)N(C)C)n(C5CCCC5)c4n3)nc1)C2", "24 to 34 nM"],
  ["CN(C)C(=O)c1cc2cnc(Nc3ccc(C(=O)N4CC5CCC(C4)N5)cn3)nc2n1C1CCN(C(C)(C)C)CC1", "> 10000 nM"],
  ["CN(C)C(=O)c1cc2cnc(Nc3ccc(C(=O)N4C[C@@H]5C[C@H]4C[C@@H]5O)cn3)nc2n1C1CCCC1", "422 to 542 nM"],
  ["CN(C)C(=O)c1cc2cnc(Nc3ccc(C(=O)N4[C@@H]5CNC[C@H]4COC5)cn3)nc2n1C1CCCC1", "40 to 99 nM"],
  ["CN(C)C(=O)c1cc2cnc(Nc3ccc(C(=O)N4CC5CCC(C4)C5O)cn3)nc2n1C1CCCC1 (centres unmarked)", "377 to 919 nM"]
]}

# input Name the recorded IC50 for CN(C)C(=O)c1cc2cnc(Nc3ccc(N4CC5(CCCNC5)OC4=O)cn3)nc2n1C1CCCC1 (centres unmarked) .
# output 13 to 49 nM

# input Form field: reported IC50 of CN(C)C(=O)c1cc2cnc(Nc3ccc(C(=O)N4CC5CCCC(C4)N5)cn3)nc2n1C1CCCC1
# output 21 to 47 nM

# input Please report the recorded IC50 for CN(C)C(=O)c1cc2cnc(Nc3ccc(N4CC5CCC(CC4=O)N5)cn3)nc2n1-c1ccc(C(C)(C)C#N)cc1 (centres unmarked) .
# output 119 to 917 nM

---

Tested on: phosphorylation of pRb at the Ser780 site in JeKo-1 mantle cell lymphoma cells
Experiment: CDK4 cellular assay: ELISA of pRb phosphorylation at Ser780 in JeKo-1 cells
Assay type: cell-based
Conditions: Homo sapiens, JeKo-1, JeKo-1 cells, p-pRb % inhibition adjusted with total pRb levels; read-out: Normalized cellular ppRb inhibition IC50
ENDPOINT LABEL: IC50

Worked examples follow.
{"columns": ["COMPOUND", "IC50"],
 "data": [
  ["CN(C)C(=O)c1cc2cnc(Nc3ccc(C(=O)N4CC5CCC(C4)N5)cn3)nc2n1[C@H]1CC[C@H](C(C)(C)C)CC1", "288 to 438 nM"],
  ["CN(C)C(=O)c1cc2cnc(Nc3ccc(N4CC5CNCC5CC4=O)cn3)nc2n1C1CCCC1 (racemic)", "14 to 56 nM"],
  ["CN(C)C(=O)c1cc2cnc(Nc3ccc(N4C[C@@H]5CC[C@H](CC4=O)N5)cn3)nc2n1C1CCCCC1", "28 to 47 nM"],
  ["CN(C)C(=O)c1cc2cnc(Nc3ccc(C(=O)N4CC5CCC(C4)N5)cn3)nc2n1-c1ccc(C(C)(C)C)cc1", "7 to 27 nM"],
  ["CN(C)C(=O)c1cc2cnc(Nc3ccc(N4CC5(CC6CCC(C5)N6C)OC4=O)cn3)nc2n1C1CCCC1 (stereo not drawn)", "71 nM"]
]}

Proceeding to the next compound to report its IC50.
# input Returns the measured IC50 for the input compound. Input: CN(C)C(=O)c1cc2cnc(Nc3ccc(C(=O)N4C[C@H]5CN[C@H](C5)C4)cn3)nc2n1C1CCCC1
# output 68 nM

---

System: phosphorylation of pRb at the Ser780 site in JeKo-1 mantle cell lymphoma cells
Test: CDK4 cellular assay: ELISA of pRb phosphorylation at Ser780 in JeKo-1 cells
Assay type: cell-based
Settings: Homo sapiens; JeKo-1 cells, p-pRb Ser780 ELISA, non-normalized; read-out: Cellular ppRb inhibition IC50
pIC50: −log10 of the molar value.
Measured pIC50, listed per entry.

Use these answered entries as a reference point.
{"columns": ["MOLECULE", "VALUE REPORTED"],
 "data": [
  ["CN(C)C(=O)c1cc2cnc(Nc3ccc(N4CC5(CCNCC5)OC4=O)cn3)nc2n1C1CCCC1", "7.33 to 7.59"],
  ["CN(C)C(=O)c1cc2cnc(Nc3ccc(C(=O)N4CC5CCC(C4)N5)cn3)nc2n1C1CCC1", "6.95 to 7.51"],
  ["CN(C)C(=O)c1cc2cnc(Nc3ccc(C(=O)N4CC5CCC(C4)N5)cn3)nc2n1C1CCCOC1 (stereo not shown)", "6.68 to 6.90"]
]}

# input Looking for the measured pIC50 of CN(C)C(=O)c1cc2cnc(Nc3ccc(C(=O)N4CC5CC4CN5)cn3)nc2n1C1CCCCCC1 (stereo not shown) , can you help?
# output 7.59 to 7.72
